# Test system: central benzodiazepine receptor
# Assay notes: [3H]-FNZ binding to crude synaptosomal membranes from rat CNS regions
# Design: species or system rat (Wistar)
# Conditions used: rat hippocampus; read-out: Ki, [3H]-FNZ binding
Measure: Ki (µM)

>  <Compound>
O=c1cc(-c2cccc([N+](=O)[O-])c2)oc2ccc([N+](=O)[O-])cc12 [Compound (II), 6,3'-dinitroflavone]

>  <Unit info>
µM

>  <Meas value>
0.0361

$$$$

###

# Test system: central benzodiazepine receptors (BDZ-Rs)
# Assay notes: 3H-FNZ binding to rat brain synaptosomal membranes (Section 3)
# Conditions used: cerebral cortex, second population of sites, n=6; read-out: Ki SEM, 3H-FNZ binding
Measure: Ki (nM)

>  <Sample smiles>
O=c1cc(-c2cccc([N+](=O)[O-])c2)oc2ccc(Br)cc12

>  <Test system>
central benzodiazepine receptors (BDZ-Rs)

>  <Measure>
Ki

>  <Meas value>
15.5

$$$$

###

# Test system: central benzodiazepine receptors
# Assay notes: Autoradiographic [3H]-FNZ displacement on rat brain sections
# Format: binding, rat (Wistar)
# Conditions used: dentate gyrus, n=3; read-out: Ki, [3H]-FNZ binding, autoradiography
pKi: −log10 of the molar value.
Measure: pKi

>  <Sample smiles>
O=c1cc(-c2cccc([N+](=O)[O-])c2)oc2ccc([N+](=O)[O-])cc12

>  <Meas value>
7.09

$$$$

###

# Test system: central benzodiazepine receptor (Rattus norvegicus, UniProt P18508+P62813)
# Sequence (P62813 28-455): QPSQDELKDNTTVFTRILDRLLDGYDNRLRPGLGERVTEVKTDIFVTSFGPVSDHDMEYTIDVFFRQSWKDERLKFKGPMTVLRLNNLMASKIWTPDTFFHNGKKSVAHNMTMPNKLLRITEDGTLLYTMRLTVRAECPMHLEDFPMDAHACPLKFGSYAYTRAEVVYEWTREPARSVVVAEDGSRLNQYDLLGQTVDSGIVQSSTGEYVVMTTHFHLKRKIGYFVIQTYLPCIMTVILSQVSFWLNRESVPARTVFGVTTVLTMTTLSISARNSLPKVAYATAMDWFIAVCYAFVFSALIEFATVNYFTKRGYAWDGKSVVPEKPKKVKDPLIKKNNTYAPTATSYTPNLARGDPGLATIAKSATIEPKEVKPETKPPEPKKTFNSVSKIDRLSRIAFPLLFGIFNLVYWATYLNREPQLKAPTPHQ
# Sequence (P18508 39-466): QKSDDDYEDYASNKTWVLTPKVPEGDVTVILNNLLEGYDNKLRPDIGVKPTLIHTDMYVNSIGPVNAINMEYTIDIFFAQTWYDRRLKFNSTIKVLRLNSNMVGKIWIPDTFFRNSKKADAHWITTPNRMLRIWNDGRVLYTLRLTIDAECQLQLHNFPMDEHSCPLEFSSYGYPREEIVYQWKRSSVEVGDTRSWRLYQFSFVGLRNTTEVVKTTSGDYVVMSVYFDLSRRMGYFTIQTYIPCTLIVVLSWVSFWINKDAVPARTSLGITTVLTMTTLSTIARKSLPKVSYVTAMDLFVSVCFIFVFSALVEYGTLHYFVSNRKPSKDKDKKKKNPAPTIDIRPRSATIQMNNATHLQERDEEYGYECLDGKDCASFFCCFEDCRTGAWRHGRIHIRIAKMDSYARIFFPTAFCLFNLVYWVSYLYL
# Sequence (P63138 26-474 partner): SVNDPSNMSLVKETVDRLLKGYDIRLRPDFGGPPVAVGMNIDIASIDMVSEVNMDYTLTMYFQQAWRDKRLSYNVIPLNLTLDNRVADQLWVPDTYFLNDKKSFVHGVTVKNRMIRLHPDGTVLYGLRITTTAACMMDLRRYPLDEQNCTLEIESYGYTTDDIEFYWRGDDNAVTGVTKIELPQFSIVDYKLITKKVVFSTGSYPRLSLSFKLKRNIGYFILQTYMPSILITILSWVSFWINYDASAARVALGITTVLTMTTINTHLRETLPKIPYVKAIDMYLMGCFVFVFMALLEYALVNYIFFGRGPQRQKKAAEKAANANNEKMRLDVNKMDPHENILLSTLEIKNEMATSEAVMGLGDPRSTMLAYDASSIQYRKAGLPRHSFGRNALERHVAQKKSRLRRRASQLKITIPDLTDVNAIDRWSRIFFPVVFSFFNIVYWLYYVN
# Assay notes: Autoradiographic [3H]-FNZ displacement on rat brain sections
# Type: binding, rat (Wistar)
# Set-up: Wistar rats were decapitated and brains rapidly removed; from tissue; host or cells: Wistar rat brain sagittal sections
pKi: −log10 of the molar value.

>  <Compound>
O=c1cc(-c2cccc([N+](=O)[O-])c2)oc2ccc([N+](=O)[O-])cc12 [Compound (II), 6,3'-dinitroflavone]

>  <pKi>
7.76

$$$$

###

# Test system: central benzodiazepine receptor type I (Rattus norvegicus, UniProt P18508+P62813)
# Construct: washed crude synaptosomal membranes from rat cerebral cortex; from tissue; host or cells: Wistar rat cerebral cortex, striatum, cerebellum (crude synaptosomal membranes)
# Sequence (P63138 25-474 partner limits assumed, one chain of several): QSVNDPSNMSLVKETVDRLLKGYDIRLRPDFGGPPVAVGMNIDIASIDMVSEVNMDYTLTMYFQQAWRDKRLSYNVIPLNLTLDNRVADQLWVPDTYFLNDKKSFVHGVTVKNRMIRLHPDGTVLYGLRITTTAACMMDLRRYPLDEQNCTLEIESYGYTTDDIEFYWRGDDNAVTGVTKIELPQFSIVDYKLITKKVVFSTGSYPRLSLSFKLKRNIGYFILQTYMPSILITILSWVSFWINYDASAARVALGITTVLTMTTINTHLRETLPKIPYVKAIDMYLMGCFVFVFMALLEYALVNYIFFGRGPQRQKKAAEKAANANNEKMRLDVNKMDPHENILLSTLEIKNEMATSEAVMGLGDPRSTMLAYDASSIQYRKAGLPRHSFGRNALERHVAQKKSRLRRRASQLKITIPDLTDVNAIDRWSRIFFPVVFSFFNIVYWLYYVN
# Assay notes: [3H]-zolpidem binding to rat synaptosomal membranes
# Parameters: species or system rat (Wistar)
# Conditions used: rat cerebellum, n=3; read-out: Ki, [3H]-ZOLP binding
pKi: −log10 of the molar value.

>  <Molecule>
O=c1cc(-c2cccc([N+](=O)[O-])c2)oc2ccc([N+](=O)[O-])cc12 [Compound (II), 6,3'-dinitroflavone]

>  <pKi>
7.77

$$$$

###

# Test system: central benzodiazepine receptor
# Assay notes: [3H]-FNZ binding to crude synaptosomal membranes from rat CNS regions
# Parameters: species or system rat (Wistar)
# Conditions used: all the brain regions studied; read-out: Ki, [3H]-FNZ binding
pKi: −log10 of the molar value.
Measure: pKi

>  <Molecule>
CN1C(=O)CN=C(c2ccccc2)c2cc(Cl)ccc21 [Diazepam, reference compound]

>  <Measure>
pKi

>  <Meas value>
~8.15

$$$$

###

# Test system: central benzodiazepine receptor
# Assay notes: [3H]-FNZ binding to crude synaptosomal membranes from rat CNS regions
# Set-up: species or system rat (Wistar)
# Conditions used: cortical membranes, high affinity site; read-out: high affinity Ki value
pKi: −log10 of the molar value.

>  <Compound>
Cc1nnc2ccc(-c3cccc(C(F)(F)F)c3)nn12 [CL 218,872, reference compound]

>  <pKi>
8.00

$$$$
